- Assayed target: recombinant GSK3β kinase (Homo sapiens (Human))
- Sequence (P49841 whole entry): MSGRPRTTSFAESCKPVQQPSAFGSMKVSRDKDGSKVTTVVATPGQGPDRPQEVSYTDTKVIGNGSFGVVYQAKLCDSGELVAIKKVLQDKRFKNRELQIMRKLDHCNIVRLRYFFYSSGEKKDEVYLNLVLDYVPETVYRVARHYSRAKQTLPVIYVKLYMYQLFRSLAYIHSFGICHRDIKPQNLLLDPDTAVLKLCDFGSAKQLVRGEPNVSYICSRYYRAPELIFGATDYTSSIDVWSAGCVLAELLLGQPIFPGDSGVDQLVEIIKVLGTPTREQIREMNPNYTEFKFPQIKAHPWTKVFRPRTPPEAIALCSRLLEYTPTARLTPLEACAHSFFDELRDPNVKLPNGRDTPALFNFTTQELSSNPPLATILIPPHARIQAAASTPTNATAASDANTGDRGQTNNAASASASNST
- Test: GSK3β kinase assay (Ser/Thr 09 peptide Z-lyte FRET);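 also: kinase activity read as coumarin to fluorescein emission ratio, 11-point threefold dilutions from 10 µM to 0.0003 µM in duplicate, unphosphorylated and phosphorylated peptide as 0% and 100% controls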
- Measurement parameters: 46 μM ATP, 1 h room temperature
# EC50 annotations
Use µM as the unit, but write only the number.

1. CCn1cc(-c2ccc3cnc(NC(=O)CN4CCCC4)cc3c2)cn1 [Compound 285] :: 0.149
2. [2H]C([2H])([2H])n1cc(-c2ccc3cnc(NC(=O)CN4CCCCC4)cc3c2)cn1 [Compound 306] :: 0.066
3. Cn1cc(-c2ccc3cnc(NC(=O)C4CCN(CC5(C(F)(F)F)CC5)CC4)cc3c2)cn1 [Compound 310] :: 0.105
4. Cn1cc(-c2cc3cc(NC(=O)C4CCNCC4)ncc3cc2F)cn1 [Compound 369] :: 0.101
5. Cc1ncc(-c2ccc3cnc(NC(=O)CN4CCCC4)cc3c2)s1 [Compound 993] :: 0.087

# value of EC50, recombinant GSK3β kinase (Homo sapiens (Human)), item CO[C@H]1CC[C@H](C(=O)Nc2cc3cc(-c4cncn4C)ccc3cn2)CC1 [Compound 528] = 0.096

Bench note, recombinant GSK3β kinase (Homo sapiens (Human)): Cc1ncc(-c2ccc3cnc(NC(=O)CN4C[C@H]5C[C@@H]4CO5)cc3c2)s1 [Compound 996] , EC50 reads 0.141

The measured EC50 that Cc1ncc(-c2ccc3cnc(NC(=O)[C@H]4CC[C@H](N5CCOCC5)CC4)cc3c2)o1 [Compound 1064] showed for recombinant GSK3β kinase (Homo sapiens (Human)) is 0.126

// EC50 (recombinant GSK3β kinase (Homo sapiens (Human))) for O=C(CN1CCCC1)Nc1cc2cc(-c3cnn4c3CN(CCF)CC4)ccc2cn1 [Compound 999] = 0.086

recombinant GSK3β kinase (Homo sapiens (Human)) data for CC(C)N1CCN(CC(=O)Nc2cc3cc(-c4cnn(C)c4)ccc3cn2)CC1 [Compound 352] ; its EC50: 0.11

Readout EC50 for Cn1cc(-c2ccc3cnc(NC(=O)C4CCN(Cc5ccccc5)CC4)cc3c2)cn1 [Compound 335] , test system recombinant GSK3β kinase (Homo sapiens (Human)), was 0.071
